Tested on: T-47D breast
Assay: NCI-60 one-dose screen, 48 h
Details: 10 µM unless noted
Compounds without any hit were thinned out: in the full panel of roughly 83,000, 20% have a hit. Calls of active or inactive are those of the source. Rule for the calls: active = growth percent below 10; inactive = the rest.
Log the outcome using a class from true (active), false (inactive)

Some solved entries appear below for comparison.
[
  {
    "COMPOUND": "C=C(C)C(=O)O[C@H]1C[C@@]2(C)OC(=CC2=O)/C(C)=C\\[C@H]2OC(=O)C(=C)[C@H]12",
    "CLASS": "true"
  },
  {
    "COMPOUND": "O=C(NNc1nc2cc(F)ccc2n2cncc12)c1cnccn1",
    "CLASS": "false"
  },
  {
    "COMPOUND": "CNC(=O)c1cc(Oc2ccc3nc(NC(=O)c4cc(C)cc(C)c4)sc3c2)ccn1",
    "CLASS": "false"
  },
  {
    "COMPOUND": "O=S(=O)(Nc1cc(Cl)cc(Cl)c1)c1ccc(-c2cnc(C3CC3)o2)cc1",
    "CLASS": "false"
  }
]

Just curious, what result did `CCOP(=O)(OCC)OC[C@]12CCC(C)(C)C[C@H]1C1=CC[C@@H]3[C@@]4(C)C/C(=C\c5cccnc5)[C@H](OP(=O)(OCC)OCC)C(C)(C)[C@@H]4CC[C@@]3(C)[C@]1(C)CC2` get here? false

Tell me the assay call for `CC(C)SC1=NC(=C(C(=N1)NC2=ClC=CC=C2)C#N)C3=CC=CC=C3` please. false

Tell me the assay call for O=C(COc1ccc(C2SCC(=O)N2c2ccccc2)cc1)c1ccccc1 (configuration not stated) please. false

====

Overview of recorded growth for various compounds
Test system: SF-268 CNS
Test: NCI-60 one-dose screen, 48 h (100 = growth as untreated, 0 = no growth, -100 = all killed)
Conditions: 10 µM unless noted
Procedure: Cells are grown in 96 well plates and exposed to the test compound for 48 hours. Compounds are tested at a single concentration, which is 10^-5 M for most compounds. The reported endpoint is percent growth (GI% or GIPRCNT), where numbers from 0 - 100% represent growth inhibition, and numbers from -100% - 0 represent cell death. For example, a value of 40 represents 60% growth inhibition. A value of 0 means no net growth occurred over the course of the experiment. […]
The panel holds about 83,000 compounds, 20% with a hit somewhere; the sample as a whole holds those more often.
Number only, in %; omit the unit.

Check out these entries, answers already filled in.
[
  {
    "COMPOUND": "Nc1n[nH]c2cccc(C#Cc3cccc(NC(=O)c4cccc(OC(F)(F)F)c4)c3)c12",
    "ASSAY_TARGET": "SF-268 CNS",
    "UNIT_ABBREVIATION": "%",
    "growth": 50.9
  },
  {
    "COMPOUND": "O=C(Nc1cccc(Cl)c1)Nc1nc2ccc(-c3cccc4ccccc34)cc2s1",
    "ASSAY_TARGET": "SF-268 CNS",
    "UNIT_ABBREVIATION": "%",
    "growth": 66.7
  },
  {
    "COMPOUND": "C/C(=C(/C)C1CC1CCN(C(=O)c1ccc([N+](=O)[O-])cc1)S(=O)(=O)c1ccc(C)cc1)C1CCCCC1 (centres undefined)",
    "ASSAY_TARGET": "SF-268 CNS",
    "UNIT_ABBREVIATION": "%",
    "growth": 96.5
  }
]

Okay, next one:
Reported growth for SF-268 CNS, given `COc1cc(-c2nc(SCc3ccc(C)cc3)[nH]c(=O)c2C#N)ccc1OCc1ccccc1` ? 97.6
